- Assay Text: solubility in PBS in the presence of 1% DMSO
- Assay type: physicochemical
- Conditions Used: phosphate buffered saline with 1% DMSO, aqueous buffer, kinetic from dmso stock, PBS w/o Mg, Ca
Metric: solubility (µM)
One number for each entry, in µM.

Example entries begin here.
{"Compound": "O=C1c2ccsc2N=C2N(c3ccc(N4CCOCC4)cc3)CCC12O (centres unmarked)", "Metric": "solubility", "Unit Text": "µM", "Result": 1450}
{"Compound": "O=C1c2ccsc2N=C2N(c3ccccc3)CCC12O (centres unmarked)", "Metric": "solubility", "Unit Text": "µM", "Result": 2400}
{"Compound": "COc1ccc(N2CC[C@@]3(O)C(=O)c4ccsc4N=C23)cc1", "Metric": "solubility", "Unit Text": "µM", "Result": 510}

For each entry beneath this line, provide reported solubility.
1. N#Cc1ccc(N2CC[C@@]3(O)C(=O)c4ccsc4N=C23)cc1
2. Cc1cc2c(s1)N=C1N(c3ccc(N4CCOCC4)cc3)CCC1(O)C2=O (centres unmarked)
3. CC(=O)c1ccc(N2CC[C@@]3(O)C(=O)c4ccsc4N=C23)cc1
4. Nc1ccc(N2CC[C@@]3(O)C(=O)c4ccsc4N=C23)cc1

Result string:
1. 410
2. 710
3. 820
4. 1360
